Origin of the recorded values: ChEMBL document CHEMBL1156057

experiment: Half life in rat at 2 mg/kg, iv; assay type: ADME, organism-based; parameters: dose 2 mg/kg, route intravenous; conditions: in vivo
Assay metric: half-life (min)
Expressed in min, but write only the number.

# input Report half-life, nothing else, for this compound: CCc1nn(CCO)c(CC)c1Oc1cccc(C#N)c1
# output 6

Kindly review the next compound as well.
# input Entry CCc1nn(CCO)c(CC)c1Oc1cc(C#N)cc(C#N)c1 [LERSIVIRINE] needs its half-life filled in; supply it.
# output 96

====

target: hERG (KCNH2) (Homo sapiens); test: Displacement of [3H]dofetilide from human ERG expressed in HEK293 cells at 25 uM; type: cell-based; conditions: HEK293 cells that express hERG, probe [3H]dofetilide, read-out: Activity
Sequence (Q12809 whole entry): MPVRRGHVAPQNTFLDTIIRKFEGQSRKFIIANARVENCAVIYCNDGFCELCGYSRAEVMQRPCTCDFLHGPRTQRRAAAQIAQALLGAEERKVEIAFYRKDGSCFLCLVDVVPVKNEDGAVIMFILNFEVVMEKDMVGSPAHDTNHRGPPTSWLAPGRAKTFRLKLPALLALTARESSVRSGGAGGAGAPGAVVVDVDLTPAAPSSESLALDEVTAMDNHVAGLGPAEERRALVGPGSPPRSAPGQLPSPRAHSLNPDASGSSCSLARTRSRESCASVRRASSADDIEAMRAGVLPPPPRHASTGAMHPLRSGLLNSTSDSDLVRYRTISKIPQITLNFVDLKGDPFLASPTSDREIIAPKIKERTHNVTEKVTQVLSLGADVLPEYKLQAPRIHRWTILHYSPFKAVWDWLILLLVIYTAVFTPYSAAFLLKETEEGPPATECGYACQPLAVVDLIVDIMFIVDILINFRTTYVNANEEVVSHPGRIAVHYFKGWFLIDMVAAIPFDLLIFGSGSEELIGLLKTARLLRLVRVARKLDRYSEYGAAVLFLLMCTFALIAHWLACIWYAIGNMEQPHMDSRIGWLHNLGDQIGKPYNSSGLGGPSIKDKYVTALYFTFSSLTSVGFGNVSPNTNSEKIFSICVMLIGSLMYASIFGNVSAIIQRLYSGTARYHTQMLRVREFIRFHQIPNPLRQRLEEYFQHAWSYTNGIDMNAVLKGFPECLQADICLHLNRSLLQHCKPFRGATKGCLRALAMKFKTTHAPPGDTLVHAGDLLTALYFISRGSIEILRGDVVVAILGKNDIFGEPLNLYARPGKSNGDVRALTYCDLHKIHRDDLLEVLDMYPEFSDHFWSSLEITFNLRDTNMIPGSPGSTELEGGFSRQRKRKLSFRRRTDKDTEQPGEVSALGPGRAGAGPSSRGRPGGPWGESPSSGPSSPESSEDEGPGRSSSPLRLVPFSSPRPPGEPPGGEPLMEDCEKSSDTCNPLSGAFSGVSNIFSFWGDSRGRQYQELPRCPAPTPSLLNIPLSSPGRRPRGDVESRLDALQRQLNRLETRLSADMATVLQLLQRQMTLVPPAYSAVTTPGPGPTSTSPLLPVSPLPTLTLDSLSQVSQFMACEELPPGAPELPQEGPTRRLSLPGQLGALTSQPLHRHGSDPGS
Assay metric: inhibition at 25 µM (%)
Write the answer as a number in %, unit excluded.

# input Enter inhibition at 25 µM (test system hERG (KCNH2) (Homo sapiens)) for CCc1nn(CCN)c(CC)c1Oc1cc(Cl)cc(C#N)c1
# output 88

Others:
# input State the measured inhibition at 25 µM (hERG (KCNH2) (Homo sapiens)) of CCc1nn(CCO)c(CC)c1Oc1cc(F)cc(C#N)c1
# output 0

# input Identify measured inhibition at 25 µM obtained with hERG (KCNH2) (Homo sapiens) for CCc1nn(CCO)c(CC)c1Oc1cc(C#N)cc(C#N)c1 .
# output 0

====

assay: Volume of distribution in rat at 2 mg/kg, iv; assay type: ADME, organism-based; set-up: dose 2 mg/kg, route intravenous; conditions: in vivo
This listing pairs compounds with measured Vd.
Give just the number in L/kg; leave the unit off.

# input Output Vd of CCc1nn(CCO)c(CC)c1Oc1cc(C#N)cc(C#N)c1
# output 1.6

Continuing:
# input Please report the measured Vd for CCc1nn(CCO)c(CC)c1Oc1cccc(C#N)c1
# output 1.3

====

assay: Inhibition of HIV reverse transcriptase; set-up: species or system Human immunodeficiency virus
In this section, each of the compounds is paired with its reported pIC50.
Remember the convention: pIC50 equals -log10 of concentration in molar.

# annotated cases, reported pIC50 shown
# input Annotate the compound CCc1nn(CCN)c(CC)c1Oc1cc(C)cc(C#N)c1 with its measured pIC50.
# output 7.40

# input Hello, please tell me recorded pIC50 for this one: CCc1nn(CCN)c(CC)c1Oc1cc(Cl)cc(C#N)c1
# output 7.37

# input Could you please provide reported pIC50 for CCc1n[nH]c(CC)c1Oc1cccc(C#N)c1 ? Thanks!
# output 6.05

Next up:
# input Return value of pIC50 for input CCc1n[nH]c(CC)c1Oc1cc(C#N)cc(C#N)c1 , no commentary.
# output 6.62

====

system: Human immunodeficiency virus; assay: Fold resistance, ratio of IC50 for HIV reverse transcriptase with F227L mutant to IC50 for HIV wild type reverse transcriptase
Assay metric: Ratio IC50
// return a plain number; no unit text

Worked set:
# input Given CCc1nn(CCN)c(CC)c1Oc1cc(C)cc(C#N)c1 , report its Ratio IC50 on Human immunodeficiency virus.
# output 5

# input Name the recorded Ratio IC50 of CCc1nn(CCO)c(CC)c1Oc1cc(F)cc(C#N)c1 , assay system Human immunodeficiency virus.
# output 5

# input State measured Ratio IC50 of the compound O=C1Nc2ccc(Cl)cc2[C@@](C#CC2CC2)(C(F)(F)F)O1 with Human immunodeficiency virus.
# output 0.4

Further cases:
# input Write down measured Ratio IC50 (Human immunodeficiency virus) for this compound. CCc1nn(CCO)c(CC)c1Oc1cc(Cl)cc(C#N)c1
# output 3.6

# input Fetch value of Ratio IC50 on Human immunodeficiency virus for CCc1nn(CCO)c(CC)c1Oc1cccc(C#N)c1 .
# output 4.7

====

# reported Ratio IC50; entries follow
system: Human immunodeficiency virus; experiment: Fold resistance, ratio of IC50 for HIV reverse transcriptase with K103N mutant to IC50 for HIV wild type reverse transcriptase

# input Tell me Ratio IC50 of CCc1nn(CCO)c(CC)c1Oc1cccc(C#N)c1 when tested on Human immunodeficiency virus.
# output 2.3

# input Report its Ratio IC50 with Human immunodeficiency virus as the test system: CCc1nn(CCO)c(CC)c1Oc1cc(F)cc(C#N)c1
# output 1.8

# input // fetch Ratio IC50; item: CCc1nn(CCN)c(CC)c1Oc1cc(C)cc(C#N)c1 ; system: Human immunodeficiency virus
# output 2.4

# input Give Ratio IC50 only, for CCc1nn(CCO)c(CC)c1Oc1cc(Cl)cc(C#N)c1 , using Human immunodeficiency virus data.
# output 1.2

Moving on to another compound below.
# input Lab note: Human immunodeficiency virus assay, enter Ratio IC50 for O=C1Nc2ccc(Cl)cc2[C@@](C#CC2CC2)(C(F)(F)F)O1 here
# output 44

====

test system: Human immunodeficiency virus; assay: Fold resistance, ratio of IC50 for HIV reverse transcriptase with K101E mutant to IC50 for HIV wild type reverse transcriptase
Assay metric: Ratio IC50
Output spec: single numeric token, no unit.

Example compounds with recorded Ratio IC50:
# input Give a short answer stating reported Ratio IC50 for CCc1nn(CCO)c(CC)c1Oc1cc(Cl)cc(C#N)c1 .
# output 6.2

# input Annotate the compound CCc1nn(CCN)c(CC)c1Oc1cc(C)cc(C#N)c1 with its measured Ratio IC50.
# output 6.2

# input Find the measured Ratio IC50 of CCc1nn(CCO)c(CC)c1Oc1cc(F)cc(C#N)c1 and report it.
# output 5.6

Next:
# input Provide one value: measured Ratio IC50 of O=C1Nc2ccc(Cl)cc2[C@@](C#CC2CC2)(C(F)(F)F)O1
# output 3.8

# input Fill in Ratio IC50 for record CCc1nn(CCO)c(CC)c1Oc1cccc(C#N)c1
# output 9.4

====

test: Cytotoxicity against human SupT1 cells; type: cell-based; details: sup-t1
Assay metric: CC30

Recorded CC30, per entry:
# input State, in one line, measured CC30 of CCc1nn(CCN)c(CC)c1Oc1cc(F)cc(C#N)c1
# output < 30 µM

# input Please supply the value of reported CC30 for the item CCc1n[nH]c(CC)c1Oc1cc(F)cc(C#N)c1
# output 18 µM

# input # return recorded CC30 for entry CCc1nn(CCN)c(CC)c1Oc1cc(Cl)cc(C#N)c1
# output 30 µM

Further cases:
# input Annotate the compound O=C1Nc2ccc(Cl)cc2[C@@](C#CC2CC2)(C(F)(F)F)O1 [EFAVIRENZ] with its measured CC30.
# output > 2 µM

# input Respond only with CC30 recorded for CCc1nn(CCO)c(CC)c1Oc1cc(F)cc(C#N)c1
# output > 30 µM

# input Entry CCc1n[nH]c(CC)c1Oc1cc(C#N)cc(C#N)c1 needs its CC30 filled in; supply it.
# output > 30 µM

# input For the compound CCc1nn(CCN)c(CC)c1Oc1cc(C#N)cc(C#N)c1 , give its measured CC30 value.
# output > 30 µM

# input Using the record for CCc1nn(CCO)c(CC)c1Oc1cc(C)cc(C#N)c1 , state its measured CC30.
# output > 30 µM

====

Property: Ratio IC50; scope: individual compounds
system: Human immunodeficiency virus; test: Fold resistance, ratio of IC50 for HIV reverse transcriptase with V106A mutant to IC50 for HIV wild type reverse transcriptase
Please respond with just the number, no unit label.

# input Answer with the recorded Ratio IC50 of CCc1nn(CCO)c(CC)c1Oc1cc(Cl)cc(C#N)c1 only.
# output 3.4

# input Complete the entry with Ratio IC50 for CCc1nn(CCN)c(CC)c1Oc1cc(C)cc(C#N)c1
# output 3.7

# input Please indicate Ratio IC50 recorded for CCc1nn(CCO)c(CC)c1Oc1cccc(C#N)c1
# output 15

Next:
# input For the compound CCc1nn(CCO)c(CC)c1Oc1cc(F)cc(C#N)c1 , report Ratio IC50.
# output 14

# input // Input: O=C1Nc2ccc(Cl)cc2[C@@](C#CC2CC2)(C(F)(F)F)O1 [EFAVIRENZ] . Output its Ratio IC50 only.
# output 1.8

====

Documented Ratio IC50 across a set of molecules
test system: Human immunodeficiency virus; experiment: Fold resistance, ratio of IC50 for HIV reverse transcriptase with V108I mutant to IC50 for HIV wild type reverse transcriptase
Please reply with the number alone, leaving off any unit.

Look over these answered cases.
# input Please look at this molecule and report its Ratio IC50: CCc1nn(CCO)c(CC)c1Oc1cccc(C#N)c1
# output 11

# input Read off the recorded Ratio IC50 for CCc1nn(CCO)c(CC)c1Oc1cc(F)cc(C#N)c1
# output 7.6

# input Identify Ratio IC50 associated with the molecule CCc1nn(CCN)c(CC)c1Oc1cc(C)cc(C#N)c1
# output 9.3

# input Retrieve Ratio IC50 measured for CCc1nn(CCO)c(CC)c1Oc1cc(Cl)cc(C#N)c1 and print it.
# output 4.8

Further cases:
# input Given the molecule O=C1Nc2ccc(Cl)cc2[C@@](C#CC2CC2)(C(F)(F)F)O1 , write its reported Ratio IC50.
# output 1
